assay: chemical genetic growth profiling, strain panel (AID 1159580);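 note: tested at 20 µM; growth read once vehicle control cultures reached saturation at 30 °C; 1 = growth at the plate median or of vehicle wells; lower values mean less growth of the strain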; details: S. cerevisiae deletion strains, growth OD, locus YGL173C, strain kem1
The whole screen tested about 5,500 compounds, of which about 2,000 (36%) were called active. Roughly 18% stayed inconclusive and do not appear here. Cut-off read from the data, not from the text of the source: active = normalized growth mostly below about 0.91 (no sharp cut-off); inconclusive = no clear call, values can overlap the other calls; inactive = mostly above about 0.92. This is one part of the list.
Field 'call' accepts active, inactive

Challenge: Tell me the recorded outcome of this test for CC(C)c1ccc2c(c1)CCC1[C@](C)(CN)CCC[C@]21C (stereo partly drawn) .
Response given: inactive

Challenge: Tell me the recorded outcome of this test for CC(N=C(NC#N)Nc1ccncc1)C(C)(C)C (stereo not drawn) .
Response given: inactive

Challenge: Tell me the recorded outcome of this test for `CNCCCC12CCC(c3ccccc31)c1ccccc12` .
Response given: inactive

Challenge: Tell me the recorded outcome of this test for `O=C1NC(O)=NC1(c1ccccc1)c1ccccc1` .
Response given: inactive

Challenge: Tell me the recorded outcome of this test for `NC(=O)NC(=O)Cc1ccccc1` .
Response given: inactive

Challenge: Tell me the recorded outcome of this test for `CCN(CC)CCOCCOC(=O)C1(c2ccccc2)CCCC1` .
Response given: inactive

Challenge: Tell me the recorded outcome of this test for CC(C)c1ccc2c(c1)CCC1C(C)(C(N)=O)CCCC21C (stereo not drawn) .
Response given: inactive

Challenge: Tell me the recorded outcome of this test for `CC(C)=CCc1c2c(c3occ(-c4ccc(O)cc4)c(=O)c3c1O)C=CC(C)(C)O2` .
Response given: active

Challenge: Tell me the recorded outcome of this test for `CCN(CC)CCOC(=O)C1(C2CCCCC2)CCCCC1` .
Response given: inactive

Challenge: Tell me the recorded outcome of this test for `Cc1cn[nH]c1` .
Response given: inactive

Challenge: Tell me the recorded outcome of this test for `O=C(CC(=O)c1ccccc1)c1ccccc1` .
Response given: active

Challenge: Tell me the recorded outcome of this test for `CC1=CC(=O)c2c(O)cccc2C1=O` .
Response given: active

Challenge: Tell me the recorded outcome of this test for `NCC(=O)c1ccccc1` .
Response given: inactive

* * *

assay: chemical genetic growth profiling, strain panel (AID 1159580);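 note: tested at 20 µM; growth read once vehicle control cultures reached saturation at 30 °C; 1 = growth at the plate median or of vehicle wells; lower values mean less growth of the strain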; conditions: S. cerevisiae deletion strains, growth OD, locus YHR087W, strain rtc3, active compounds read low
The campaign covered roughly 5,500 compounds. About 2,000 (36%) were called active. Inconclusive results (about 18%) are left out. The list shows a part of the results.
assay-endpoint: normalized growth

Challenge: Requested read-out: normalized growth. Entry: `Cc1cc(C)c(Cn2nc(C(C)(C)C)cc2C(=O)Nc2cccc(C(F)(F)F)c2)c(C)c1`
Response given: 0.999 (inactive)

Challenge: Requested read-out: normalized growth. Entry: CSc1sc(C#N)c2c1C(O)CCC2 (stereo not drawn)
Response given: 0.968 (inactive)

Challenge: Requested read-out: normalized growth. Entry: `Cc1cccc(Cn2nc(C(C)(C)C)cc2C(=O)O)c1`
Response given: 0.949 (inactive)

Challenge: Requested read-out: normalized growth. Entry: `COC(OC)c1cc(=O)[nH]c(=S)[nH]1`
Response given: 1.01 (inactive)

Challenge: Requested read-out: normalized growth. Entry: `Cc1cccc(C)c1N=C1SCCS1`
Response given: 0.988 (inactive)

Challenge: Requested read-out: normalized growth. Entry: `Fc1cc(F)cc(COc2cc(Cl)cc(Cl)c2)c1`
Response given: 0.959 (inactive)

Challenge: Requested read-out: normalized growth. Entry: `Clc1ccc(Sc2ncnc3ccsc23)cc1`
Response given: 0.809 (active)

Challenge: Requested read-out: normalized growth. Entry: O=C1NC2CC2N1C(=O)OCc1ccccc1 (stereo not drawn)
Response given: 0.969 (inactive)

Challenge: Requested read-out: normalized growth. Entry: `Cc1ccc(-c2nn[nH]n2)cc1Cl`
Response given: 0.975 (inactive)

Challenge: Requested read-out: normalized growth. Entry: `CC(=O)Nc1ccc(S(=O)(=O)Nc2c(C)n(C)n(-c3ccccc3)c2=O)cc1`
Response given: 0.974 (inactive)

Challenge: Requested read-out: normalized growth. Entry: N#CC(c1ccccc1)N1CCCCC1 (stereo not drawn)
Response given: 0.995 (inactive)

Challenge: Requested read-out: normalized growth. Entry: `Cc1cc(=O)n(-c2ccc([N+](=O)[O-])cc2)[nH]1`
Response given: 0.8 (active)

Challenge: Requested read-out: normalized growth. Entry: `Nc1ccc2nonc2c1N`
Response given: 0.993 (inactive)
